target: P-glycoprotein (P-gp) (Homo sapiens)
Sequence (P08183 whole entry): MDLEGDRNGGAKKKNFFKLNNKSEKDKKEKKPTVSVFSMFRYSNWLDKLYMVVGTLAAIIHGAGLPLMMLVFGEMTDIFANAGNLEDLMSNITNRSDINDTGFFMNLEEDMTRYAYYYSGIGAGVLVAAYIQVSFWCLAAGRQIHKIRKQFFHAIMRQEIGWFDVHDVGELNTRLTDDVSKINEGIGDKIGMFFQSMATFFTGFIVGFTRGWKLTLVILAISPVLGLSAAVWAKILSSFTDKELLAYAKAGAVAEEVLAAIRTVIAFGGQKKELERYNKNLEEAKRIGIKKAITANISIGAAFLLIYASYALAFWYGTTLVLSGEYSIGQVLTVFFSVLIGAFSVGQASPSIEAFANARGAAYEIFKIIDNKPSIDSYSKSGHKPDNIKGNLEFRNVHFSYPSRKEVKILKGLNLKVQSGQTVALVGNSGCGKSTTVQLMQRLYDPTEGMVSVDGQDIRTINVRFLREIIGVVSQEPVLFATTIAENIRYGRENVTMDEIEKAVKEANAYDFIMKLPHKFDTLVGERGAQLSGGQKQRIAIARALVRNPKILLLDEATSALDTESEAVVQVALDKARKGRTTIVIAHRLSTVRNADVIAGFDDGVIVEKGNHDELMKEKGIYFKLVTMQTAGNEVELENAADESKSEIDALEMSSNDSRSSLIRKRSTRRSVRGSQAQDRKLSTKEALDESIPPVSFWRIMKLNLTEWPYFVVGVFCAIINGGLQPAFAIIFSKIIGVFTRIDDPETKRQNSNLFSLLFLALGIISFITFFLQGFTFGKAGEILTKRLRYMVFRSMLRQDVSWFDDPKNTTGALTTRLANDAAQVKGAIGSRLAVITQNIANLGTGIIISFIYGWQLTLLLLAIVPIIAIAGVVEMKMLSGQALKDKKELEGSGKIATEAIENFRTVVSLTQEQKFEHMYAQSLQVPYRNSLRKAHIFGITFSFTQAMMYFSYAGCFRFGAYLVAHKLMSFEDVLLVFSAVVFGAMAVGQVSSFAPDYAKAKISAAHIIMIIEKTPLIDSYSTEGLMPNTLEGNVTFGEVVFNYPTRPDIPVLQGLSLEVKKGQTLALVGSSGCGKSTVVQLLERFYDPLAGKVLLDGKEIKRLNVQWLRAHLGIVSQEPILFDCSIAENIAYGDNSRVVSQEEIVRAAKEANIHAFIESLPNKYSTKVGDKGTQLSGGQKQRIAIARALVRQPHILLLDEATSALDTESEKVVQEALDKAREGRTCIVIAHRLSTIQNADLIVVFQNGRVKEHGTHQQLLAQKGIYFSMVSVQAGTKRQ
pIC50: −log10 of the molar value.
reported metric: pIC50

1. Cn1cc(C(=O)O)c2ccc(N3CCC(OCc4c(-c5c(Cl)cccc5Cl)noc4C4CC4)CC3)cc21 5.41

----------
assay: Multiple-ascending dose trial of Compound 1 in healthy participants: safety and PK; assay type: in vivo, human; details: human, plasma, 4 mg, 4 mg QD, Last day (of 7); mean (CV %)
reported metric: Cmax (ng/mL)

1. COC1CCN(c2ncc(OC/C(=C/F)CN)cn2)CC1 18.6

----------
Assay: Multiple-ascending dose trial of Compound 2 in healthy participants
Format: in vivo, human
Details: human, plasma, oral; Day 14, 3 mg QD; read-out: t1/2 (median) (converted)
Description: A multiple-ascending dose clinical trial of Compound 2 was performed. Compound 2 plasma and urine concentrations were determined using validated liquid chromatography-tandem mass spectrometry assay. […] PD sampling was also performed. Percent change from baseline for PD markers were calculated using an ANCOVA model with percent change from baseline as dependent variable, treatment group as fixed effect, and baseline as covariate. […]
reported metric: half-life (min)

1) N#Cc1nn(-c2cc(Cl)c(Oc3n[nH]c(=O)c4ccccc34)c(Cl)c2)c(=O)[nH]c1=O 960

----------
experiment: Multiple-ascending dose trial of Compound 1 in healthy participants: safety and PK; type: in vivo, human; details: human, plasma, 10 mg, 10 mg QD, Day 1; mean (CV %)
reported metric: AUC(0-t) (ng·h/mL)

1. COC1CCN(c2ncc(OC/C(=C/F)CN)cn2)CC1 102

----------
assay: Single-ascending dose trial of Compound 2 in healthy participants: safety and PK; type: in vivo, human; details: human, plasma, oral; single dose 3 mg, fasted (n = 6); median (min-max)

compound	Tmax (h)
N#Cc1nn(-c2cc(Cl)c(Oc3n[nH]c(=O)c4ccccc34)c(Cl)c2)c(=O)[nH]c1=O [Compound 2]	4

----------
assay: Multiple-ascending dose trial of Compound 1 in healthy participants: safety and PK; assay type: in vivo, human; settings: human, plasma, 10 mg, 10 mg QD, Day 1; median (min, max)
reported metric: Tmax

1. COC1CCN(c2ncc(OC/C(=C/F)CN)cn2)CC1 1.9 h

----------
assay: pH and solubilizer effect on solubility; assay type: physicochemical; conditions: 0.1N HCl with 2 wt % SLS, 25 °C, aqueous with cosolvent or surfactant or cyclodextrin, thermodynamic from solid, 0.1N HCl, with 2 wt % SLS, potassium salt
reported metric: solubility at 24 h (µg/mL)

1) N#Cc1nn(-c2cc(Cl)c(Oc3n[nH]c(=O)c4ccccc34)c(Cl)c2)c(=O)[nH]c1=O 5.7

----------
assay: pH and solubilizer effect on solubility; type: physicochemical; conditions: pH 6.0 buffer, 25 °C, pH 6, aqueous buffer, thermodynamic from solid, without 2 wt % SLS, potassium salt
reported metric: solubility at 24 h (µg/mL)

compound	numeric value
N#Cc1nn(-c2cc(Cl)c(Oc3n[nH]c(=O)c4ccccc34)c(Cl)c2)c(=O)[nH]c1=O [Compound 2]	2.2

----------
test: Single-ascending dose trial of Compound 2 in healthy participants: safety and PK; type: in vivo, human; settings: human, plasma, oral; single dose 30 mg, fasted (n = 6); mean

molecule	Cmax
N#Cc1nn(-c2cc(Cl)c(Oc3n[nH]c(=O)c4ccccc34)c(Cl)c2)c(=O)[nH]c1=O [Compound 2]	1800 ng/mL
